Recorded values, source patent EP4786466A1.

test: in vitro; conditions: human
Kindly supply the reported viability at 1 µM values for the records listed here.
Give bare numbers, in %.

As a guide, the following entries are already answered.
- CC(C)(C)OC(=O)N1CC2C(C1)C2Nc1nc(Nc2cc(C3CC3)[nH]n2)c2ccccc2n1 (stereo not shown) [compound 4cg]: 117
- c1ccc2c(Nc3cc(C4CC4)[nH]n3)nc(Nc3cnc4cccnn34)nc2c1 [compound 4dh]: 111
- c1ccc2c(Nc3cc(C4CC4)[nH]n3)nc(Nc3ccc4[nH]ncc4c3)nc2c1 [compound 4dd]: 3.7

# next compound below
Exercise: Entry c1ccc2c(Nc3cc(C4CC4)n[nH]3)nc(Nc3ccc4nc[nH]c4c3)nc2c1 [compound 4df] : reported viability at 1 µM = ?
Key: 4.8

----------
tested on: MCF7 breast cancer cell lines; experiment: Cell viability analysis, WST-8 assay, MCF7; settings: Homo sapiens, MCF7, 72 h, read-out: Cell viability (%) WST-8, MCF7 (1 µM), compound 1 µM, 72 hours
The label TRUE is reserved for viability at 1 µM strictly under 80%; FALSE covers values equal to or above it.

Exercise: Please let me know if N#CCc1ccc(Nc2nc(Nc3cccc(N)c3)c3ccccc3n2)cc1 [compound 3n] shows viability at 1 µM below 80%.
Key: FALSE

----------
tested on: MCF10A normal breast cell lines; assay: Cell viability analysis, WST-8 assay, MCF10A; conditions: read-out: IC50(nM) Cell viability (MCF10A); MCF10A, WST-8, 72 hours
Kindly supply the reported IC50 values for the records listed here.
Give bare numbers, in nM.

As a guide, the following entries are already answered.
- O=S(=O)(c1cccs1)N1CC2CCC1CN2c1nc(Nc2cc(C3CC3)[nH]n2)c2ccccc2n1 (stereo not shown) [compound 24d]: 210
- O=S(=O)(C1CCCCC1)N1CC2CCC1CN2c1nc(Nc2cc(C3CC3)[nH]n2)c2ccccc2n1 (stereo not shown) [compound 24b]: 684
- CC(C)S(=O)(=O)N1CC2CCC1CN2c1nc(Nc2cc(C3CC3)[nH]n2)c2ccccc2n1 (stereo not shown) [compound 24a]: 420

Exercise: Entry N#Cc1ccccc1S(=O)(=O)N1CC2CCC1CN2c1nc(Nc2cc(C3CC3)[nH]n2)c2ccccc2n1 (stereo not shown) [compound 24e] : reported IC50 = ?
Key: 184

----------
Kindly supply the reported viability at 1.1 µM values for the records listed here.
test system: MCF7 breast cancer cell lines; test: Cell viability analysis, WST-8 assay, MCF7; conditions: Homo sapiens, MCF7, 72 h, read-out: Cell viability (%) WST-8, MCF7, footnote d: concentration 1.1 µM, 72 hours

- Cc1nn(C)c(C)c1Nc1nc(Nc2ccc(CC#N)cc2)nc2ccccc12 [3c]: 110%

Give viability at 1.1 µM for each of the items listed below.
1. O=S(=O)(c1cccc(Cl)c1)N1CC2CC1CN2c1nc(Nc2cc(C3CC3)[nH]n2)c2ccccc2n1 (centres unmarked) [compound 15q]
2. CCCS(=O)(=O)N1CC2CC1CN2c1nc(Nc2cc(C3CC3)[nH]n2)c2ccccc2n1 (centres unmarked) [compound 15j]
3. CC(C)S(=O)(=O)c1ccccc1Nc1nc(Nc2ccc(CC#N)cc2)nc2ccccc12 [compound 3g]
4. O=S(=O)(c1ccc(F)cc1)N1CC2CC1CN2c1nc(Nc2cc(C3CC3)[nH]n2)c2ccccc2n1 (centres unmarked) [compound 15n]
5. O=S(=O)(c1ccc(-c2ccccc2)cc1)N1CC2CC1CN2c1nc(Nc2cc(C3CC3)[nH]n2)c2ccccc2n1 (centres unmarked) [compound 15aa]
6. CC(C)S(=O)(=O)N1CC2CC1CN2c1nc(Nc2cc(C3CC3)[nH]n2)c2ccccc2n1 (centres unmarked) [compound 15h]
7. Cc1n[nH]c(C)c1Nc1nc(Nc2ccc(CC#N)cc2)nc2ccccc12 [compound 3d]

Key:
106%
104%
109%
108%
87.5%
94.5%
132%
